Every entry's value here was drawn from ChEMBL document CHEMBL5506069.

# Tested on: Candida parapsilosis
# TEST METHOD NOTES: Antifungal activity against Candida parapsilosis ATCC 22019 assessed as inhibition of fungal growth incubated for 24 hrs by CLSI based microbroth dilution method
# Format: functional
# MEASUREMENT CONDITIONS: Lodderomyces parapsilosis
ENDPOINT: log10 MIC (log10 of the value in µM)
Remember, log10 of MIC, in µM.

SMILES RECORD: C=CCN1C(=O)c2cccc3c(N/N=C(\C)Cn4c([N+](=O)[O-])cnc4C)ccc(c23)C1=O
STUDY TARGET: Candida parapsilosis
log10 MIC: 3.08

Query: // query log10 MIC value for entry `O=C1c2cccc3c(N/N=C/c4ncc[nH]4)ccc(c23)C(=O)N1CCO`
Result: 0.78

Query: Cool, now `C/C(Cn1c([N+](=O)[O-])cnc1C)=N\Nc1ccc2c3c(cccc13)C(=O)N(c1ccc(F)c(Cl)c1)C2=O`
Result: 2.39

Query: `CCCCCCCN1C(=O)c2cccc3c(N/N=C(\C)Cn4c([N+](=O)[O-])cnc4C)ccc(c23)C1=O` ?
Result: 3.02

Query: Item: `CCCCCN1C(=O)c2cccc3c(N/N=C(\C)Cn4c([N+](=O)[O-])cnc4C)ccc(c23)C1=O`
Result: 2.74

Query: Repeat with `CCCCCCCn1c(CCCC)nc(Cl)c1/C=N/Nc1ccc2c3c(cccc13)C(=O)N(CCO)C2=O`
Result: 2.38

Query: Record: `O=C1c2cccc3c(N/N=C/c4ccco4)ccc(c23)C(=O)N1CCO`
Result: 2.55

Query: For `CCCCc1nc(Cl)c(/C=N/Nc2ccc3c4c(cccc24)C(=O)N(CCO)C3=O)n1Cc1ccc(Cl)cc1` then?
Result: 1.76

Query: Field entry: `CCN1C(=O)c2cccc3c(N/N=C(\C)Cn4c([N+](=O)[O-])cnc4C)ccc(c23)C1=O`
Result: 3.09

###

# MIC per entry
# System: Candida albicans
# TEST METHOD NOTES: Antifungal activity against Candida albicans ATCC 90023 assessed as inhibition of fungal growth incubated for 24 hrs by CLSI based microbroth dilution method
# Type: functional
Please give a number only; it is taken to be in µM.

Some molecules with recorded MIC:
SMILES RECORD: CCCCCCCCN1C(=O)c2cccc3c(N/N=C(\C)Cn4c([N+](=O)[O-])cnc4C)ccc(c23)C1=O
MIC [µM]: 1020
--
SMILES RECORD: O=C1c2cccc3c(N/N=C/c4ccc(O)c([N+](=O)[O-])c4)ccc(c23)C(=O)N1CCO
MIC [µM]: 10
--
SMILES RECORD: O=C1c2cccc3c(N/N=C/c4ccc(CO)o4)ccc(c23)C(=O)N1CCO
MIC [µM]: 5
--
SMILES RECORD: CCCCc1nc(Cl)c(/C=N/Nc2ccc3c4c(cccc24)C(=O)N(CCO)C3=O)n1Cc1ccccc1Cl
MIC [µM]: 4
--
SMILES RECORD: CCCCc1nc(Cl)c(/C=N/Nc2ccc3c4c(cccc24)C(=O)N(CCO)C3=O)n1CCO
MIC [µM]: 17

Query: For the molecule shown here, `C=CCn1c(CCCC)nc(Cl)c1/C=N/Nc1ccc2c3c(cccc13)C(=O)N(CCO)C2=O` , give the reported MIC.
Result: 33

Query: Then `CCCN1C(=O)c2cccc3c(N/N=C(\C)Cn4c([N+](=O)[O-])cnc4C)ccc(c23)C1=O` ?
Result: 1180

Query: How about this molecule: `O=C1c2cccc3c(N/N=C/c4ccc[n+](Cc5ccc([N+](=O)[O-])cc5)c4)ccc(c23)C(=O)N1CCO`
Result: 56
